A short record of IC50 observed with p38alpha (Homo sapiens, UniProt Q16539) follows.
Sequence (Q16539 whole entry): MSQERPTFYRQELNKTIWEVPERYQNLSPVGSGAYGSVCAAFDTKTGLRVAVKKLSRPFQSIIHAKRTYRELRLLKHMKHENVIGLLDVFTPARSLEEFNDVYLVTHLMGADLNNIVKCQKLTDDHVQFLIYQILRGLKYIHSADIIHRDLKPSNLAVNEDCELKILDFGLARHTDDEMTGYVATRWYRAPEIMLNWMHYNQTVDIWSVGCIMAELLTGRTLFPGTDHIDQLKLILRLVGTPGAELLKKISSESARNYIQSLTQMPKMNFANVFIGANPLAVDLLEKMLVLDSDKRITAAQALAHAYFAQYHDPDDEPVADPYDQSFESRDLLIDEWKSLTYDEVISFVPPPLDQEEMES
Structures can show the parent of a compound that is named as a salt.

# example entries with known answers
{"COMPOUND": "C[C@@H]1CCC[C@H](C)N1c1nnc2ccc(O[C@@H]3CC[C@H](NC(=O)Nc4cc(C(C)(C)C)nn4-c4cccc(CN5CCOCC5)c4)c4ccccc43)cn12 [Example 130, formate salt]", "RECORDED_MEASUREMENT": "< 10 nM"}
{"COMPOUND": "Cc1ccc(-n2nc(C(C)(C)C)cc2NC(=O)N[C@H]2CC[C@@H](Oc3ccc4nnc([C@@H]5CCCN5)n4c3)c3ccccc32)cc1", "RECORDED_MEASUREMENT": "< 10 nM"}

Would you kindly look at the next entry?
Problem: Entry Cc1ccc(-n2nc(C(C)(C)C)cc2NC(=O)N[C@H]2CC[C@@H](Oc3ccc4nnc(-c5cccc(CN6CCOCC6)c5)n4c3)c3ccccc32)cc1 , system p38alpha (Homo sapiens, UniProt Q16539): what IC50 was measured?
Result: < 10 nM
